system: HCT-116; assay: Inhibition of human HCT116 clonogenicity after 7 days by crystal violet staining by densitometric analysis; assay type: functional
assay metric: inhibition (INH) (%)
Form entry: value (%) — number only.

Input "COc1cc(O)c2c(=O)c(-c3ccc(O)cc3)coc2c1" . Output inhibition (INH): 74

Consider "COc1ccc(-c2coc3c(OC)c(OC)ccc3c2=O)cc1" . Its measured inhibition (INH) is 70

"Cc1cc2occ(-c3ccc(Cl)cc3Cl)c(=O)c2cc1Cl" yielded inhibition (INH) of 12.7

For "COc1cc2c(=O)c(-c3ccccc3)coc2cc1O" the molecule record lists inhibition (INH) as 37.3

For record "O=c1c(-c2ccc(O)cc2)coc2c(O)c(O)ccc12" the listed inhibition (INH) is 64

Noted for "COc1ccc2c(=O)c(-c3ccccc3)coc2c1" : its inhibition (INH) reads 42

The molecule "COc1cc(OC)c2c(=O)c(-c3ccc(Cl)cc3)coc2c1" showed inhibition (INH) equal to 71.3

inhibition (INH) reading for "Cc1c(O)ccc2c(=O)c(-c3ccc(Cl)cc3)coc12" : 46.3

In plain terms, "COc1ccc(-c2coc3cc(OC)c(OC)cc3c2=O)cc1OC" has a documented inhibition (INH) of 85.3

In plain terms, "COc1ccc(-c2coc3c(C)c(OC)ccc3c2=O)cc1" has a documented inhibition (INH) of 52.7

// field: inhibition (INH); key: "COc1cc(OC)c2c(=O)c(-c3ccccc3Cl)coc2c1" ; value = 63.3

Reported inhibition (INH) ( "COc1cc2occ(-c3ccccc3)c(=O)c2cc1OC" ) = 91.3
